Active and inactive are the calls of the source.
So I've got Kd readings for Dual specificity protein kinase CLK2 (Homo sapiens), take a look.

[
  {
    "molecule": "COCc1c(-c2ccc(NC(=O)Nc3cc(C(F)(F)F)ccc3F)c(F)c2)c2c(N)ncnn2c1CN1CCOCC1",
    "Kd": "> 30 µM (inactive)"
  },
  {
    "molecule": "CO[C@H]1C[C@@H]2CC[C@@H](C)[C@@](O)(O2)C(=O)C(=O)N2CCCC[C@H]2C(=O)O[C@H]([C@H](C)C[C@@H]2CC[C@@H](OP(C)(C)=O)[C@H](OC)C2)CC(=O)[C@H](C)/C=C(\\C)[C@@H](O)[C@@H](OC)C(=O)[C@H](C)C[C@H](C)/C=C/C=C/C=C/1C [RIDAFOROLIMUS]",
    "Kd": "> 30 µM (inactive)"
  },
  {
    "molecule": "O=c1[nH]ccc2cc(OC3CCNCC3)ccc12 [SAR-407899 FREE BASE]",
    "Kd": "> 30 µM (inactive)"
  },
  {
    "molecule": "O=C(Nc1nc2cccc(-c3ccc(CN4CCS(=O)(=O)CC4)cc3)n2n1)C1CC1 [FILGOTINIB]",
    "Kd": "> 30 µM (inactive)"
  },
  {
    "molecule": "COc1cc2ncnc(Oc3cccc(NC(=O)Nc4cc(C(C)(C)C(F)(F)F)on4)c3)c2cc1OC [CEP-32496]",
    "Kd": "> 30 µM (inactive)"
  },
  {
    "molecule": "COc1ccc(S(=O)(=O)N(C(C)=O)c2ccccc2/C=C/c2cc[n+]([O-])cc2)cc1 [HMN-214]",
    "Kd": "> 30 µM (inactive)"
  },
  {
    "molecule": "N#CC1(c2ccc(NC(=O)c3cccnc3NCc3ccncc3)cc2)CCCC1 [RIVOCERANIB]",
    "Kd": "> 30 µM (inactive)"
  },
  {
    "molecule": "CO[C@H]1C[C@@H]2CC[C@@H](C)[C@@](O)(O2)C(=O)C(=O)N2CCCC[C@H]2C(=O)O[C@H]([C@H](C)C[C@@H]2CC[C@@H](O)[C@H](OC)C2)CC(=O)[C@H](C)/C=C(\\C)[C@@H](O)[C@@H](OC)C(=O)[C@H](C)C[C@H](C)/C=C/C=C/C=C/1C [SIROLIMUS]",
    "Kd": "> 30 µM (inactive)"
  },
  {
    "molecule": "Cc1csc(-c2nnc(Nc3ccc(Oc4ncccc4-c4ccnc(N)n4)cc3)c3ccccc23)c1 [AMG-900]",
    "Kd": "3.22 µM (active)"
  },
  {
    "molecule": "FC(F)(F)c1ccc(/C=C/c2nc(COc3ccc(CCCCn4ccnn4)cc3)co2)cc1 [MUBRITINIB]",
    "Kd": "> 30 µM (inactive)"
  },
  {
    "molecule": "O=C(Nc1c[nH]nc1-c1nc2cc(CN3CCOCC3)ccc2[nH]1)NC1CC1 [AT-9283]",
    "Kd": "> 30 µM (inactive)"
  },
  {
    "molecule": "Cc1nc2cc(-n3ncc(C(=O)c4cc5ccccc5[nH]4)c3N)ccc2[nH]1 [FGFR INHIBITOR DEBIO 1347]",
    "Kd": "> 30 µM (inactive)"
  },
  {
    "molecule": "NC1(c2ccc(-c3nc4ccn5c(=O)[nH]nc5c4cc3-c3ccccc3)cc2)CCC1 [MK-2206]",
    "Kd": "> 30 µM (inactive)"
  },
  {
    "molecule": "Cc1nc(NC(=O)N2CCC[C@H]2C(N)=O)sc1-c1ccnc(C(C)(C)C(F)(F)F)c1 [ALPELISIB]",
    "Kd": "> 30 µM (inactive)"
  }
]

---

- tgt: Protein-tyrosine kinase 6 (Homo sapiens, UniProt Q13882)
- Sequence (Q13882 whole entry): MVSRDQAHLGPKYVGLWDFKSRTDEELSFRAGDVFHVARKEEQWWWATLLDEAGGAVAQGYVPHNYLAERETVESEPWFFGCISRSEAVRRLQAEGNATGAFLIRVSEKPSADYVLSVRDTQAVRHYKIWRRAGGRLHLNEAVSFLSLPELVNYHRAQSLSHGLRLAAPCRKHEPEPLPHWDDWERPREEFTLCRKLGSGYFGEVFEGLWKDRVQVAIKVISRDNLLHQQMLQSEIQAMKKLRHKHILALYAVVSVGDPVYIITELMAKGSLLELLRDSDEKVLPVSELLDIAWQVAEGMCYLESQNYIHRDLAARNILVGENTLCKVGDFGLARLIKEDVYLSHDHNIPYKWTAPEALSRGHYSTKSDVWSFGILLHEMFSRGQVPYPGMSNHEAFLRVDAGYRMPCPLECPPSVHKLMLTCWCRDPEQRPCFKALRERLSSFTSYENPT
Activity calls are given as the source filed them.
Outcomes: 1 (yes) = active, 0 (no) = inactive

[
  {
    "mol": "Cc1cc(Nc2ncnc3ccc(NC4=NC(C)(C)CO4)cc23)ccc1Oc1ccn2ncnc2c1",
    "class": "0 (no)"
  },
  {
    "mol": "COc1cc2c(Nc3ccc(Cl)c(Cl)c3F)ncnc2cc1OC[C@@H]1C[C@@H]2CN(C)C[C@@H]2C1",
    "class": "1 (yes)"
  },
  {
    "mol": "C[C@H]1CNCCCN1S(=O)(=O)c1cccc2cncc(F)c12",
    "class": "0 (no)"
  },
  {
    "mol": "Cc1nc(NC(=O)N2CCC[C@H]2C(N)=O)sc1-c1ccnc(C(C)(C)C(F)(F)F)c1",
    "class": "0 (no)"
  },
  {
    "mol": "O=C(Nc1c[nH]nc1-c1nc2cc(CN3CCOCC3)ccc2[nH]1)NC1CC1",
    "class": "1 (yes)"
  },
  {
    "mol": "COc1c(OCCCN2CCOCC2)ccc2c1N=C(NC(=O)c1cnc(N)nc1)N1CCN=C21",
    "class": "0 (no)"
  },
  {
    "mol": "COc1ncc(-c2ccc3nccc(-c4ccnnc4)c3c2)cc1NS(=O)(=O)c1ccc(F)cc1F",
    "class": "0 (no)"
  },
  {
    "mol": "Cc1cccc(-c2nn3c(c2-c2ccnc4ccc(C(N)=O)cc24)CCC3)n1",
    "class": "0 (no)"
  }
]

---

- tgt: Dual specificity mitogen-activated protein kinase kinase 1 (Homo sapiens)
- Sequence (Q02750 whole entry): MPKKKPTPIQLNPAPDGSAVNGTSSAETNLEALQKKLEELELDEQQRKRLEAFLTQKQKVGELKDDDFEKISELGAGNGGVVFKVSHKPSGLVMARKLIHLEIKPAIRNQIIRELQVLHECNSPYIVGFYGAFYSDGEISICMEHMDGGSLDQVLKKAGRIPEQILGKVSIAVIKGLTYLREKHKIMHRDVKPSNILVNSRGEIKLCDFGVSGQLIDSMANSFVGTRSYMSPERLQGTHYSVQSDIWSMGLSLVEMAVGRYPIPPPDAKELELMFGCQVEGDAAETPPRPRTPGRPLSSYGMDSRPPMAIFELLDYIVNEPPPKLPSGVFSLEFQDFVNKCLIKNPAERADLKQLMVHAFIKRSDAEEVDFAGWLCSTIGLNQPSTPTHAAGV
Activity calls are given as the source filed them.
Outcomes: t (active), f (inactive)

[
  {
    "molecule": "COc1cc([C@@H]2c3cc4c(cc3[C@H](O)[C@H]3COC(=O)[C@@H]23)OCO4)cc(OC)c1OC",
    "class": "f"
  },
  {
    "molecule": "C[C@@H](N)c1ccc(C(=O)Nc2ccnc3[nH]ccc23)cc1",
    "class": "f"
  },
  {
    "molecule": "Cn1cc(-c2cnn3c(N)c(Br)c([C@@H]4CCCNC4)nc23)cn1",
    "class": "f"
  },
  {
    "molecule": "CNC(=O)c1nn(C)c2c1C(C)(C)Cc1cnc(Nc3ccc(N4CCN(C)CC4)cc3)nc1-2",
    "class": "f"
  },
  {
    "molecule": "Cn1cnc2c(F)c(Nc3ccc(Br)cc3F)c(C(=O)NOCCO)cc21",
    "class": "t"
  },
  {
    "molecule": "CO[C@H]1C[C@@H]2CC[C@@H](C)[C@@](O)(O2)C(=O)C(=O)N2CCCC[C@H]2C(=O)O[C@H]([C@H](C)C[C@@H]2CC[C@@H](O)[C@H](OC)C2)CC(=O)[C@H](C)/C=C(\\C)[C@@H](O)[C@@H](OC)C(=O)[C@H](C)C[C@H](C)/C=C/C=C/C=C/1C",
    "class": "f"
  },
  {
    "molecule": "NC1(c2ccc(-c3nc4ccn5c(=O)[nH]nc5c4cc3-c3ccccc3)cc2)CCC1",
    "class": "f"
  },
  {
    "molecule": "C#Cc1cccc(Nc2ncnc3cc(OC)c(OCCCCCCC(=O)NO)cc23)c1",
    "class": "f"
  },
  {
    "molecule": "CO[C@H]1C[C@@H]2CC[C@@H](C)[C@@](O)(O2)C(=O)C(=O)N2CCCC[C@H]2C(=O)O[C@H]([C@H](C)C[C@@H]2CC[C@@H](OP(C)(C)=O)[C@H](OC)C2)CC(=O)[C@H](C)/C=C(\\C)[C@@H](O)[C@@H](OC)C(=O)[C@H](C)C[C@H](C)/C=C/C=C/C=C/1C",
    "class": "f"
  },
  {
    "molecule": "CCCCCCCCCCCCCCCCCCOP(=O)([O-])OC1CC[N+](C)(C)CC1",
    "class": "f"
  },
  {
    "molecule": "C[C@@H](Oc1cc(C(=O)Nc2ccc(C(=O)N3CCN(C)CC3)cc2)nnc1N)c1c(Cl)ccc(F)c1Cl",
    "class": "f"
  },
  {
    "molecule": "COc1cc2ncnc(Oc3cccc(NC(=O)Nc4cc(C(C)(C)C(F)(F)F)on4)c3)c2cc1OC",
    "class": "f"
  },
  {
    "molecule": "CC(C)(C)c1nc(-c2cccc(NS(=O)(=O)c3c(F)cccc3F)c2F)c(-c2ccnc(N)n2)s1",
    "class": "f"
  },
  {
    "molecule": "C[C@H]1CNCCCN1S(=O)(=O)c1cccc2cncc(F)c12",
    "class": "f"
  },
  {
    "molecule": "Cn1ncc(Cl)c1-c1cc(C(=O)N[C@H](CN)Cc2ccc(F)c(F)c2)oc1Cl",
    "class": "f"
  },
  {
    "molecule": "Cc1cnc(NC(=O)Nc2cc(Br)c(C)cc2OC[C@@H]2CNCCO2)cn1",
    "class": "f"
  },
  {
    "molecule": "CCn1cc(-c2ccnc3[nH]c(-c4cccc(CN(C)C)c4)cc23)c(-c2ccc(NC(=O)N(C)C)cc2)n1",
    "class": "f"
  },
  {
    "molecule": "Cc1cc(Nc2ncnc3ccc(NC4=NC(C)(C)CO4)cc23)ccc1Oc1ccn2ncnc2c1",
    "class": "f"
  },
  {
    "molecule": "O=C1NC(=O)[C@@H](c2cn3c4c(cccc24)CCC3)[C@@H]1c1c[nH]c2ccccc12 [TIVANTINIB]",
    "class": "f"
  },
  {
    "molecule": "COc1ccc(S(=O)(=O)N(C(C)=O)c2ccccc2/C=C/c2cc[n+]([O-])cc2)cc1",
    "class": "f"
  },
  {
    "molecule": "FC(F)(F)c1ccc(/C=C/c2nc(COc3ccc(CCCCn4ccnn4)cc3)co2)cc1",
    "class": "f"
  },
  {
    "molecule": "Cc1cccc(-c2nn3c(c2-c2ccnc4ccc(C(N)=O)cc24)CCC3)n1",
    "class": "f"
  },
  {
    "molecule": "C[C@@H](NC(=O)c1ncnc(N)c1Cl)c1ncc(C(=O)Nc2cc(C(F)(F)F)c(Cl)cn2)s1",
    "class": "f"
  },
  {
    "molecule": "Cc1cc(Nc2ncc(Cl)c(Nc3ccccc3S(=O)(=O)C(C)C)n2)c(OC(C)C)cc1C1CCNCC1",
    "class": "f"
  },
  {
    "molecule": "Cc1nc2cc(-c3nn(C(C)C)c4ncnc(N)c34)ccc2o1",
    "class": "t"
  },
  {
    "molecule": "O=C(Cc1ccc(-c2ccc(OCCN3CCOCC3)cc2)cn1)NCc1ccccc1",
    "class": "f"
  },
  {
    "molecule": "C=CC(=O)Nc1cc2c(Nc3ccc(F)c(Cl)c3)ncnc2cc1C#CC(C)(C)N1CCN(C)CC1 [AV-412 FREE BASE]",
    "class": "f"
  },
  {
    "molecule": "COCC(=O)NC/C=C/c1ccc2ncnc(Nc3ccc(Oc4ccc(C)nc4)c(C)c3)c2c1",
    "class": "f"
  },
  {
    "molecule": "CNC(=O)c1cccc2cc(Oc3ccnc4cc(OCC5(N)CC5)c(OC)cc34)ccc12",
    "class": "f"
  }
]
